B1: glmS ribozyme (parent)
chain: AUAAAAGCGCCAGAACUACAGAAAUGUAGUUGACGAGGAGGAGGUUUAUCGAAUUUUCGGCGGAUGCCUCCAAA

Variants of: B1
Experiment: self-cleavage kobs at 2500 uM GlcN6P; higher = faster cleavage; RNA array
Settings: with glucosamine-6-phosphate
Fewer inactive variants are shown than the library holds.
Assignment: determine reported self-cleavage kobs at 2500 uM GlcN6P for the given variants.
One number for each entry, in s⁻¹.

// for each variant below, give its self-cleavage kobs at 2500 uM GlcN6P
1. U55G
2. U47A C70A

A:
1: 0.0271; 2: 0.000186
